Value source: patent EP0542497A1

Overview of recorded IC50 for various compounds
# target-or-system: DHFR (Candida albicans, UniProt P22906)
# protocol-summary: biochemical
# test-parameters: C.albicans enzyme; read-out: DHFR I50 C.albicans
Express the result in nM but write the number alone.

Some compounds with recorded IC50:
# compound, units, result
data = [
    ("CCC(CC)n1ccc2c3c(N)nc(N)nc3ccc21 [Compound 1]", "nM", 4.5),
    ("Cc1cc2c3c(N)nc(N)nc3ccc2n1C(C)C [Compound 8a]", "nM", 4),
    ("CC(C)n1ccc2c3c(N)nc(N)nc3ccc21 [Compound 7d]", "nM", 35),
    ("Nc1nc(N)c2c(ccc3c2ccn3C2C=CCCC2)n1 (stereo not shown) [Compound 7g]", "nM", 6),
    ("COCC(COC)n1ccc2c3c(N)nc(N)nc3ccc21 [Compound 7e]", "nM", 8.9),
]

Next up:
Name the recorded IC50 for CCCc1cc2c3c(N)nc(N)nc3ccc2n1C(CC)CC [Compound 9b] .
1.8

---

# Tested on: D98 bone marrow cells
# protocol-summary: Cytotoxicity in cell culture (inhibition of cell growth)
# Type: cell-based
# test-parameters: human line, continuous exposure 72 hours
Here the recorded pEC50 is given for each entry.
Quick note: pEC50 values are minus log10 of concentrations in mol/L.

# molecule, pEC50
measured = [
    ("CCC(CC)n1ccc2c3c(N)nc(N)nc3ccc21", 7.35),
]

State its pEC50 on D98 bone marrow cells: "CCC(CC)n1c(C)cc2c3c(N)nc(N)nc3ccc21"
7.92

Next entry: CN(Cc1cnc2nc(N)nc(N)c2n1)c1ccc(C(=O)N[C@@H](CCC(=O)O)C(=O)O)cc1 [Methotrexate, reference compound]
7.33

Next record, please: COc1ccc(OC)c(Cc2cnc3nc(N)nc(N)c3c2C)c1 [Piritrexim, reference compound]
6.71

---

# protocol-summary: Brain distribution in mice (brain and plasma concentrations by HPLC)
# Type: in vivo
# test-parameters: female CD1 mice, 30 or 40 minutes after dose; Compound 1 17mg/kg i.v., Compound 2 10mg/kg i.v., piritrexim 200mg/kg i.p., trimetrexate 100mg/kg i.p.; average of several experiments
Recorded Tissue concentration brain for the following compounds
Expressed in µg/g, but write only the number.

# compound, Tissue concentration brain, µg/g
records = [
    ("COc1ccc(OC)c(Cc2cnc3nc(N)nc(N)c3c2C)c1 [Piritrexim, reference compound]", 2.3),
    ("CCC(CC)n1ccc2c3c(N)nc(N)nc3ccc21", 5.0),
    ("COc1cc(NCc2ccc3nc(N)nc(N)c3c2C)cc(OC)c1OC [Trimetrexate, reference compound]", 1.4),
]

Please give the measured Tissue concentration brain for this compound: "CCC(CC)n1c(C)cc2c3c(N)nc(N)nc3ccc21"
2.4

---

# target-or-system: human dihydrofolate reductase (Homo sapiens, UniProt P00374)
# Sequence (P00374 1-187): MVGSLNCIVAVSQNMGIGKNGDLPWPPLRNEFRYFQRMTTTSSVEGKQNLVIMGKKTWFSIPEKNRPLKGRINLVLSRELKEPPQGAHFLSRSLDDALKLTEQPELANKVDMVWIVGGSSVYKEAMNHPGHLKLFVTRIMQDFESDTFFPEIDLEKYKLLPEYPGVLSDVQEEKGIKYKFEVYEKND
pIC50: −log10 of the molar value. Structures can show the parent of a compound that is named as a salt.
Item-by-item account of pIC50

# molecule, result
records = [
    ("CCC(C)(C)n1c(C)cc2c3c(N)nc(N)nc3ccc21 [Compound 10b]", "> 9.00"),
    ("CC(C)n1c(C(C)(C)C)cc2c3c(N)nc(N)nc3ccc21", "> 9.00"),
    ("CCc1cc2c3c(N)nc(N)nc3ccc2n1C(C)CC (centres unmarked)", "> 9.00"),
    ("CCCC(C)n1ccc2c3c(N)nc(N)nc3ccc21 (centres unmarked)", 7.96),
]

Continue with the next molecule.
Any idea what pIC50 came out for CCCC(CCC)n1ccc2c3c(N)nc(N)nc3ccc21 [Compound 4, hydrochloride] on human dihydrofolate reductase (Homo sapiens, UniProt P00374)?
> 8.70

---

Below: a set of entries, each annotated with reported Ki.
# target-or-system: human dihydrofolate reductase (Homo sapiens, UniProt P00374)
Unit nM implied. Number only.

# get_value(readout='Ki', item= "CCC(CC)n1ccc2c3c(N)nc(N)nc3ccc21" )
0.019

Okay, and "CCC(CC)n1c(C)cc2c3c(N)nc(N)nc3ccc21" ?
0.0014

---

# target-or-system: DHFR (Candida albicans)
# protocol-summary: biochemical
assay-metric: IC50

Would you kindly share the measured IC50 for "CCC(CC)n1c(C)cc2c3c(N)nc(N)nc3ccc21" ?
< 1 nM

---

# Test system: HCT8 colon adenocarcinoma
# protocol-summary: Cytotoxicity in cell culture (inhibition of cell growth)
# Type: cell-based
# test-parameters: HCT-8, human line, continuous exposure 72 hours
assay-metric: EC50 (nM)
Please give a number only; it is taken to be in nM.

Give the measured EC50 of COc1ccc(OC)c(Cc2cnc3nc(N)nc(N)c3c2C)c1 [Piritrexim, reference compound] .
1.3

// query: CN(Cc1cnc2nc(N)nc(N)c2n1)c1ccc(C(=O)N[C@@H](CCC(=O)O)C(=O)O)cc1 [Methotrexate, reference compound]
7.3

Param item: CCC(CC)n1ccc2c3c(N)nc(N)nc3ccc21 [Compound 1]
1.2

And CCC(CC)n1c(C)cc2c3c(N)nc(N)nc3ccc21 [Compound 2] ?
0.3

---

# target-or-system: DHFR (Candida albicans)
# Sequence (P22906 1-192): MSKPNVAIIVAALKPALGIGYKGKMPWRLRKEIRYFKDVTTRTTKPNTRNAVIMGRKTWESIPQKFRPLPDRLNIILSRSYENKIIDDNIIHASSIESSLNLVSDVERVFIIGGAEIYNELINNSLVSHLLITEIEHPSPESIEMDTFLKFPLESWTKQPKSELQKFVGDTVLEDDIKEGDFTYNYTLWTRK
# protocol-summary: biochemical
# test-parameters: C.albicans enzyme; read-out: DHFR I50 C.albicans
Under this convention, criterion met denotes IC50 strictly below 4 nM and criterion not met denotes IC50 at or above 4 nM.

# molecule, assigned-label
data = [
    ("CCC(C)n1ccc2c3c(N)nc(N)nc3ccc21 (stereo not shown)", "criterion not met"),
    ("CCC(CC)n1c(C(C)C)cc2c3c(N)nc(N)nc3ccc21", "criterion met"),
    ("CCC(C(C)C)n1ccc2c3c(N)nc(N)nc3ccc21 (stereo not shown)", "criterion met"),
]

Strictly below 4 nM: is that where IC50 of CCc1cc2c3c(N)nc(N)nc3ccc2n1C(C)CC (stereo not shown) sits?
criterion met

Could you do the same for "CCC(CC)n1c(CCCCl)cc2c3c(N)nc(N)nc3ccc21" , please?
criterion not met

// repeat for CCCC(CC)n1ccc2c3c(N)nc(N)nc3ccc21 (stereo not shown) and report
criterion met

---

# key: entry, value: Tissue concentration plasma
# protocol-summary: Brain distribution in mice (brain and plasma concentrations by HPLC)
# Assay type: in vivo
# test-parameters: female CD1 mice, 30 or 40 minutes after dose; Compound 1 17mg/kg i.v., Compound 2 10mg/kg i.v., piritrexim 200mg/kg i.p., trimetrexate 100mg/kg i.p.; average of several experiments
I only need the number, in µg/mL, no unit after it.

A selection of reference data follows.
# molecule, assay-metric, result
data = [
    ("COc1cc(NCc2ccc3nc(N)nc(N)c3c2C)cc(OC)c1OC [Trimetrexate, reference compound]", "Tissue concentration plasma", 13),
    ("CCC(CC)n1ccc2c3c(N)nc(N)nc3ccc21 [Compound 1]", "Tissue concentration plasma", 0.70),
    ("CCC(CC)n1c(C)cc2c3c(N)nc(N)nc3ccc21 [Compound 2]", "Tissue concentration plasma", 0.36),
]

Return reported Tissue concentration plasma; argument: COc1ccc(OC)c(Cc2cnc3nc(N)nc(N)c3c2C)c1 [Piritrexim, reference compound]
4.2

---

// each record: one item and its IC50 for human dihydrofolate reductase (Homo sapiens)
A number alone suffices; assume nM.

# compound, units, result
data = [
    ("COCC(COC)n1ccc2c3c(N)nc(N)nc3ccc21 [Compound 7e]", "nM", 8.4),
]

Look up IC50 for this compound: CCC(C)n1ccc2c3c(N)nc(N)nc3ccc21 (centres unmarked) [Compound 7a]
18

---

# Tested on: MCF7 breast adenocarcinoma
# protocol-summary: Cytotoxicity in cell culture (inhibition of cell growth)
# Type: cell-based
# test-parameters: human line, continuous exposure 72 hours
assay-metric: pEC50
Hey, just a heads up that pEC50 is the negative log base 10 of the concentration in molar.

Take a look at these entries with their results.
# compound, assay-metric, result
records = [
    ("CCC(CC)n1c(C)cc2c3c(N)nc(N)nc3ccc21 [Compound 2]", "pEC50", 9.05),
    ("COc1ccc(OC)c(Cc2cnc3nc(N)nc(N)c3c2C)c1 [Piritrexim, reference compound]", "pEC50", 6.76),
    ("CN(Cc1cnc2nc(N)nc(N)c2n1)c1ccc(C(=O)N[C@@H](CCC(=O)O)C(=O)O)cc1 [Methotrexate, reference compound]", "pEC50", 7.92),
]

Attention now turns to another entry.
Short answer please: pEC50, MCF7 breast adenocarcinoma, entry CCC(CC)n1ccc2c3c(N)nc(N)nc3ccc21 [Compound 1]
7.42
